PROTOCOL_DESCRIPTION: yeast display, Sf9 membrane polyspecificity reagent, FACS + sequencing; frameworks hold sequencing errors
QUANTITY_MEASURED: polyreactivity (PSR sort gate)

Here is how some sequences turned out for polyreactivity (PSR sort gate).
SEQUENCE	polyreactivity (PSR sort gate)
QVQLVESGGGLVQAGGSLRLSCAASGSTFRRYAMGWYRQAPGKERELVAAITRRGGSTYYADSVKGRFTISRDNAKNTVYLQMNSLKPEDTAVYYCNAVPVVRAGHGYDSWGQGTQVTVSS	high polyreactivity
QVQLVESGGGLVQAGGSLRLSCAASGSIIYFNAMGWYRQAPGKERELVAAITRSGGSTYYADSVKGRFTISRDNAKNTVYLQMNSLKPEDTAVYYCAAEVWRTYSVEYDYWGQGTQVTVSS	high polyreactivity
QVQLVESGGGLVQAAGSLRLSCAASGRTFRAYAMGWYRQAPGKERELVAAISNRGTRTYYADSVKGRFTISRDNAKNTVYLQMNSLKPEDTAVYYCAAGNRVNRFDYWGQGTQVTVSS	high polyreactivity
QVQLVESGGGLVQAGCSLRLSCAASGSIFALYDMGWYRQAPGKERELVAAISYRGGRTYYADSVKGRFTISRDNAKNTVYLQMNSLKPEDTAVYYCATDFPGNFDYWGQGTQVTVSS	low polyreactivity
QVQLVESGGGLVQAGGSLRLSCAASGFTFQTYAMGWYRQEPGKERELVATIRTRGGSTSYADSVKGRFTISRDNAKNTVYLQMNSLKPEDTAVYYCNGRLSYRSAWYYGGDRYDYWGQGTQVTVSS	high polyreactivity

Q) Note down polyreactivity (PSR sort gate) recorded for QVQLVDSGGGLVQEGGSLRLRCAASGYTFDWYAMGWYRQAPGKERELVAAINSGGGTYYADSVKGRFTISRDNAKNSVYLQMNSLKPEDTAVYYCAKYTYDYWGQGTQVTVSS
A) low polyreactivity

Q) For QDQLVESGGGLVQAGGSLRLSCAASGSILVRNARGWYRQAPGKERELVASIDSGTSTNYADSVKGRFTISRDNAKTTVYLQLNSLKPEDTAVYYCAADWYYLWGRYYFWGQGTQVTVSS , write its polyreactivity (PSR sort gate).
A) high polyreactivity

Q) Give a short answer stating reported polyreactivity (PSR sort gate) for QVQLVESGGGLVQAGGSLRLSCAASGNIFGFYTMGWYRQAPGKERELVAAIRSRGGSTNYADSVKGRFTISRDNAKNTVYLQMNSLKPEDTAVDYCAADPRYISYDYWGQGTQVTVSS .
A) low polyreactivity

Q) Tell us which polyreactivity (PSR sort gate) value is on record for QVQLVESGGGLVQAGGSLRISSAASGRIFTPYVMGWYRQAPGKERELVADINLSGDSTSYADSVKGRFTITRDNAKNTVYLQMNSLKPEDTAVYYCNADSYIYVGNDQYDYWGQGTQVTVSS
A) low polyreactivity

###

PROTOCOL_DESCRIPTION: yeast display, Sf9 membrane polyspecificity reagent, FACS + sequencing; frameworks hold sequencing errors
QUANTITY_MEASURED: polyreactivity (PSR sort gate)

Known results for sequences:
SEQUENCE	MEASUREMENT
QVQLVESGGGLVQAGGSLRLSCAPSGSIFHYYAMGWYRQAPGKERELVAAISWSGGRTNYADSVKGRFTISSDNAKNTVYLQMNSLKPEDTAVYYCAAGNSFSDRGHRVYFQYYYWGQGTQVTVSS	high polyreactivity
QVQLVESGGGLVQAGGSLRLSCAASGIIFVPNAMGWSRHPPGKERELVAAITGRGVSTYYADSVKGRFTISRDTAKKTVYLQMNSLKPEDTAVYYCAATLFSYSGGTHDYWGQGTQVTVSS	high polyreactivity
QDQLVESGGGLVQAGGSLRLSCASSGLIFYTSSMGWYSQAPGKESGLVAAITRSDSSTYYADSVKGRFTISRDNATNTVYLQMTSLKPEDPAVYYFATPSVFLFSEYDYWGQGTKVTVSS	low polyreactivity
QVQLVESGGGLVQAGGSLRLSCAGSGSTFVVYSIGWYRQAPGKERELVAAITRGGGSTYYAYSVKGRFTISRDNAKNTVYLLMNSLKPEDTAVYYCAAYQLPGLRTSFEYWGQGTQVTVSS	low polyreactivity
QVQLVESGGGLVQAGGSLRLTCAASGRIFTTYAMGWYRQAPGKERELVAAISRSGGSTYYADSVKGRFTISRDNAKNTVYLQMNSMKPEDTAVYYCAAVPTSNSFRSSFYYWGQGTQVTVSS	high polyreactivity

Q) Determine its reported polyreactivity (PSR sort gate): QVQLVESGGGLVQAGGSLRLSCAASGSIFYYYVMGWYRQAPGKERELVAAISSGGGTNYADSVKGRFTISRDNAKNTVYLQLNRLKPEDTAVYYCAKASAYGLANDYDYWGQGTLVTVSS
A) low polyreactivity

Q) Tell us which polyreactivity (PSR sort gate) value is on record for QVQLVESGGGLVQAGGSLRLSCAASGSIFVWYAMGWYRQEPGKERELVATISSRGGTTYYADSVKGRFTISRDNAKNTVYLQMNSLKPEDTAVYYCNAKRRAQYGYRVFRYDYWGQGTQVTVSS
A) high polyreactivity

Q) Please report the measured polyreactivity (PSR sort gate) for QVQLQESGGGLVQACGSLRLSCAASGSISNGDYMGWYRQAPGKEREFVAGINTGSITYYADSVKGRFTISRDNAKNTAYLQMNSLKPEDTAVYYCAATFDAQFREPKGLYYWGQGTQVTVSS
A) low polyreactivity

Q) Provide polyreactivity (PSR sort gate) value for the following sequence: QVQLVESGGGLVQAGGSLRLSCAASGSTFRYNAMGWYRQAPGKERELVAAITSGGRTTYADSVKGRFTISRDNAKNPVYLQMNSLKPEDTAVYYCAARRYGRNWHYDYWGHGTQVTVSS
A) high polyreactivity

Q) Please look at this sequence and report its polyreactivity (PSR sort gate): QVQLVESGGGLVQAGGSLRLSCAASGIIFAVYTMGWYRQARGKERELVAALSSGGSTYYADSVQGRFTISRDNAKNTVYLQMNSLKPEDTAVYYCNAQYFWLWLTYDFDYWGQGTQVTVSS
A) high polyreactivity

Q) Given the sequence QVQLVESGGGLVQAGGSLRLSCAASGRNSLYYTMGWYRQAPGKEREFVAAISSTGGSTYYADSVKGRFTISRDNAKNTVYLLMNSLKPVDTAVYYCNKVYGGGTYDYWGQGTQVTVSS , write its reported polyreactivity (PSR sort gate).
A) low polyreactivity
